Target: T1, mouse PRLR ECD-Fc fusion protein (mouse, UniProt Q08501 20-229)
T1 construct: extracellular domain; not shown: Fc region (captured by goat anti-human Fc)
T1 sequence (looked up): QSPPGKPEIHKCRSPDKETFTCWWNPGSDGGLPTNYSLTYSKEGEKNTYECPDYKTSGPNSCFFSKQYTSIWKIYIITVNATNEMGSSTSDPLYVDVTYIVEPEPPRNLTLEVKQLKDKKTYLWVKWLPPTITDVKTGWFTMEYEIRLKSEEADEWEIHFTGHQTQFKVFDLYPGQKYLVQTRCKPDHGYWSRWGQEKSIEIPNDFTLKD
Test: ELISA on ECD
Procedure: Plates were blocked for 1 hour with Superblock (Pierce) and washed (3×) with wash buffer (lx PBS (pH 7.4), 0.05% Tween 20). ECD proteins were bound to the appropriate antibody (1 hour) in binding buffer (wash buffer plus 10% Superblock), washed (3×, wash buffer), and then incubated with serial dilutions of antibodies (1 hour) in binding buffer. […] Curves were fit with GraphPad 5 (Prizm) and EC50's were determined with curve fitting function of GraphPad 5.
# EC50 listing for each entry below
measuredParameter: EC50 (nM)

[
  {
    "binder": "Ab12 (antibody, V domains shown, murine monoclonal, isotype G2a; reported as PRLR agonist; also called murine Ab12) VH: DVQLQESGPGLVKPSQSLSLTCTVTGYSITSDYAWNWIRQFPGNKLEWMGYIGYSGRTSFNPSLKSRISITRDTSKNQFFLQLNSVTTEDTATYYCARGGFAMDYWGQGTSVTVSS VL: QIVLTQSPGIMSASPGEKVTMTCSASSSVTYMYWYQQKPRSSPKPWIYLTSNLASGVPARFSGSGSGTSYSLTISSMEAEDGATYYCQQWSSTPPLTFGGGTKLELN",
    "numericReadout": 0.121
  },
  {
    "binder": "Ab11 (antibody, V domains shown, murine monoclonal, isotype G1; also called murine Ab11) VH: EVKLVESGGGLVQPGGSLKLSCAASGFTFSDYYMFWVRQTPEKSLEWVAYISNGGGSTYYPDTVKGRFTISRDNAKNTLYLQMSRLKSEDTAMYYCSRQLFYYGSRGAMGYWGQGTSVTVSS VL: DVLMTQTPLSLPVSLGDQASISCRSSQSIVHSNGNTYLEWYLQKPGQSPKLLIYKVSNRFSGVPDRFSGSGSGTDFTLKISRVEAEDLGVYYCFQGSHVPFTFGSGTKLEIK",
    "numericReadout": 0.086
  },
  {
    "binder": "chAb8 (antibody, human IgG1, kappa, V domains shown, chimeric, murine variable and human G1/kappa constant regions) VH: EVQLQQSGPELVKPGASVKISCKASGYTFTDYNIHWVKQSHGKSLEWIGYIYPNNDGTGYNQKFKSKATLTVDNSSSTAYMEVRSLTSEDSAVYYCARGDGNYVGDMDYWGQGTSVTVSS VL: DIQMTQSPASLSASVGETVTITCRASENIYSYLAWYQQKQGKPPQLLVYNAKTLAEGVPSRFSGGGSGTQFSLKINSLQPEDFGSYYCQHHYATPFTFGSGTKLEIKT",
    "numericReadout": 1.02
  },
  {
    "binder": "Ab45 (antibody, human IgG1, kappa, V domains shown, humanized from Ab8; G1; also called Ab3 HC.1 and Ab3 LC.1a) VH: EVQLVQSGAEVKKPGASVKVSCKASGYTFTDYNIHWVRQAPGQGLEWMGYIYPNNDGTGYNQKFKSRVTMTTDTSTSTAYMELRSLRSDDTAVYYCARGDGNYVGDMDYWGQGTTVTVSS VL: DIQMTQSPSSLSASVGDRVTITCRASENIYSYLAWYQQKPGKPPKLLVYNAKTLAEGVPSRFSGSGSGTDFTLTISSLQPEDFATYYCQHHYATPFTFGQGTKLEIKR",
    "numericReadout": 0.978
  },
  {
    "binder": "Ab46 (antibody, human IgG1, kappa, V domains shown, humanized from Ab8; G1; also called Ab3 HC.1 and Ab3 LC.1b) VH: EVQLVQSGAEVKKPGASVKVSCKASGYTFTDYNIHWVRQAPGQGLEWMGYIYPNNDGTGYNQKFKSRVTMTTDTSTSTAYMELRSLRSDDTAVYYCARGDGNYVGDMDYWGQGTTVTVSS VL: DIQMTQSPSSLSASVGDRVTITCRASENIYSYLAWYQQKPGKAPKLLVYNAKTLAEGVPSRFSGSGSGTDFTLTISSLQPEDFATYYCQHHYATPFTFGQGTKLEIKR",
    "numericReadout": 0.568
  }
]
